# maps each entry to its pIC50
# ASSAYED_SYSTEM: human MMP-9 (gelatinase B) (Homo sapiens, UniProt P14780)
# Construct: endogenous in cells; host or cells: HT1080 human fibrosarcoma cells (ATCC CCL-121), PMA-stimulated; enzyme purified from the culture supernatant
# Sequence (P14780 107-707 limits assumed): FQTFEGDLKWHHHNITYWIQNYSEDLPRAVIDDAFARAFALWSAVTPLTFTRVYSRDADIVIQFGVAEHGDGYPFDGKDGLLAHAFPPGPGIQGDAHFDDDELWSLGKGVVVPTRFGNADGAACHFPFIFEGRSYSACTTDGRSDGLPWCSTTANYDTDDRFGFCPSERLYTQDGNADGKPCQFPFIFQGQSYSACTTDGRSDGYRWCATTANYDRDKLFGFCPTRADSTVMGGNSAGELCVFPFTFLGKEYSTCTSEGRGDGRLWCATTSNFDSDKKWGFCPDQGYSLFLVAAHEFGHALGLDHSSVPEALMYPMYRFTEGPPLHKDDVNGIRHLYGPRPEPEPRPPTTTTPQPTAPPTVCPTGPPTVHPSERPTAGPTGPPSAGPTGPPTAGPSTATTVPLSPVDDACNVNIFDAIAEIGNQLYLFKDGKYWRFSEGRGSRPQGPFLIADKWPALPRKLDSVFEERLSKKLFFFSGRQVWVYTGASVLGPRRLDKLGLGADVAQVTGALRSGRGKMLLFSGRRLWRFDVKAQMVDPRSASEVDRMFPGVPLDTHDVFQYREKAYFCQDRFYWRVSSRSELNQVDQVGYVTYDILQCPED
# ASSAY_NAME: Inhibition activity against human MMP-9 (gelatinase B), fluorescent peptide substrate
# Assay type: biochemical
# PROTOCOL_CONDITIONS: compounds of the formula (I); 1st measurement; read-out: MMP-9 inhibition activities IC50, 1st
pIC50: −log10 of the molar value.
OUTCOME_MEASURE: pIC50

1) CNC(=C[N+](=O)[O-])NNc1ccc(Cl)cn1 [compound 172] :: 6.09
2) CS(=O)(=O)NC(=C[N+](=O)[O-])NNc1cc(C(F)(F)F)cc(Cl)n1 [Compound No. 157] :: 5.13
3) CNC(=C[N+](=O)[O-])NNc1cc(C(F)(F)F)ncn1 [compound 97] :: 4.34
4) CCOCCOc1cc(C(F)(F)F)cc(NNC(=C[N+](=O)[O-])NS(C)(=O)=O)n1 [Compound No. 164] :: 5.27
5) CNC(=C[N+](=O)[O-])NNc1cc(C(F)(F)F)cc(SC)n1 [compound 125] :: 5.00

====

# ASSAYED_SYSTEM: human MMP-9 (gelatinase B) (Homo sapiens, UniProt P14780)
# Construct: endogenous in cells; host or cells: HT1080 human fibrosarcoma cells (ATCC CCL-121), PMA-stimulated; enzyme purified from the culture supernatant
# ASSAY_NAME: Inhibition activity against human MMP-9 (gelatinase B), fluorescent peptide substrate
# Type: biochemical
# PROTOCOL_CONDITIONS: compounds of the formula (I); 1st measurement; read-out: MMP-9 inhibition activities IC50, 1st
Lab note: compare IC50 with 40 µM, writing criterion met if less and criterion not met if equal or more.

1. CNC(=C[N+](=O)[O-])NNc1ccccc1 [compound 84] :: criterion not met
2. CNC(=C[N+](=O)[O-])NN(C)C [compound 83] :: criterion not met
3. CNC(=C[N+](=O)[O-])NNc1ccccc1Cl [compound 8] :: criterion met
4. CCOC(=O)Cc1ccc(NC(=C[N+](=O)[O-])NN)cc1 [compound 73] :: criterion not met
5. CNC(=C[N+](=O)[O-])NN(C)c1cccc(C(F)(F)F)n1 [compound 39] :: criterion met

====

# ASSAYED_SYSTEM: human MMP-9 (gelatinase B) (Homo sapiens, UniProt P14780)
# Construct: endogenous in cells; host or cells: HT1080 human fibrosarcoma cells (ATCC CCL-121), PMA-stimulated; enzyme purified from the culture supernatant
# ASSAY_NAME: Inhibition activity against human MMP-9 (gelatinase B), fluorescent peptide substrate
# Format: biochemical
# PROTOCOL_CONDITIONS: compounds of the formula (I); 2nd measurement; read-out: MMP-9 inhibition activities IC50, 2nd
pIC50: −log10 of the molar value.
# maps each entry to its pIC50
OUTCOME_MEASURE: pIC50

1) CNC(=C[N+](=O)[O-])NN(C)c1cccc(C(F)(F)F)n1 [compound 39] :: 4.53
2) CNC(=C[N+](=O)[O-])NN=C(C)OC [compound 26] :: 4.50
3) O=[N+]([O-])C=C(NCCCCO)NNc1cc(C(F)(F)F)cc(Cl)n1 [compound 199] :: 5.21
4) CNC(=C[N+](=O)[O-])NN=C(C)c1ccncc1 [compound 38] :: 4.72
5) CNC(=C[N+](=O)[O-])NNc1ccccc1 [compound 84] :: 4.85
6) CNC(=C[N+](=O)[O-])NNc1cccc(C(F)(F)F)n1 [compound 168] :: 5.14
7) CNC(=C[N+](=O)[O-])NN=Cc1ccccn1 [Compound No. 29] :: 4.61
8) CCOC(=O)Cc1ccc(NC(=C[N+](=O)[O-])NN)cc1 [compound 73] :: 4.32
9) CCNC(=C[N+](=O)[O-])NN [compound 117] :: 4.41
10) CNC(=C[N+](=O)[O-])NN=C(C)c1cccs1 [compound 32] :: 4.62
11) CCOC(=O)c1ccc(NC(=C[N+](=O)[O-])NN)cc1 [compound 74] :: 4.31
12) CNC(=C[N+](=O)[O-])NNc1cc(C(F)(F)F)cc(OCCN(C)C)n1 [Compound No. 100] :: 4.59
13) O=[N+]([O-])C=C(NNc1ccccc1)Nc1ccccc1 [Compound No. 2] :: 4.61
14) CNC(=C[N+](=O)[O-])NNc1cc(C(F)(F)F)cc(OCC2CC2)n1 [compound 184] :: 4.97
15) NNC(=C[N+](=O)[O-])Nc1ccc(O)cc1 [compound 76] :: 4.47
16) CNC(=C[N+](=O)[O-])NNc1ncccn1 [compound 45] :: 4.58
17) NNC(=C[N+](=O)[O-])Nc1ccccc1 [compound 87] :: 4.60
18) CNC(=C[N+](=O)[O-])NNc1cc(C(F)(F)F)cc(OCc2cccnc2)n1 [compound 123] :: 4.91
19) CNC(=C[N+](=O)[O-])NNc1ccccn1 [compound 22] :: 4.76
20) CCCCOc1cc(C(F)(F)F)cc(NNC(=C[N+](=O)[O-])NC)n1 [compound 177] :: 5.21
21) CNC(=C[N+](=O)[O-])NNc1cc(C(F)(F)F)cc(OCC2CCCO2)n1 (stereo not drawn) [compound 129] :: 5.17
22) CNC(=C[N+](=O)[O-])NNc1cc(C(F)(F)F)cc(OC)n1 [Compound No. 98] :: 5.11
23) CNC(=C[N+](=O)[O-])NNc1cc(C(F)(F)F)cc(C(F)(F)F)n1 [compound 44] :: 4.57
24) CNC(=C[N+](=O)[O-])NNC(O)C(F)(F)F (stereo not drawn) [compound 23] :: 4.26
25) NNC(=C[N+](=O)[O-])Nc1ccc2c(c1)OCO2 [compound 110] :: 4.53
26) COc1ccc(NC(=C[N+](=O)[O-])NN)cc1OC [compound 56] :: 4.47
27) CNC(=C[N+](=O)[O-])NNS(=O)(=O)c1ccccc1 [compound 109] :: 4.57
28) CNC(=C[N+](=O)[O-])NNc1cc(C(F)(F)F)cc(OCCCc2cccnc2)n1 [compound 119] :: 4.63
29) CCCCOc1cc(C(F)(F)F)cc(NNC(=C[N+](=O)[O-])NC)n1 [compound 178] :: 4.90
30) CNC(=C[N+](=O)[O-])NN(C)C [compound 83] :: 4.85
31) CCOc1cc(C(F)(F)F)cc(NNC(=C[N+](=O)[O-])NC)n1 [compound 106] :: 5.08
32) CNC(=C[N+](=O)[O-])NN(C)c1ncc(C(F)(F)F)cc1Cl [Compound No. 35] :: 4.66
33) NNC(=C[N+](=O)[O-])NCc1ccc(C(F)(F)F)cc1 [compound 78] :: 4.44
34) CNC(=C[N+](=O)[O-])NNc1ccccc1C [compound 14] :: 4.37
35) CNC(=C[N+](=O)[O-])NNc1nc(OC)cc(OC)n1 [compound 105] :: 4.77
36) CNC(=C[N+](=O)[O-])NNc1cccc(Cl)c1 [Compound No. 9] :: 4.36
37) NNC(=C[N+](=O)[O-])NC1CCCCC1 [compound 86] :: 4.38
38) NNC(=C[N+](=O)[O-])NC1CC1 [compound 90] :: 4.43
39) CNC(=C[N+](=O)[O-])NNc1ccccc1[N+](=O)[O-] [compound 11] :: 4.47
